Hi there, I'd appreciate the recorded melting point for every entry that follows.

**Q:** Recorded melting point of CCC(CC)c1ccc(Cl)c2nc3n(c12)CCN3c1ccc(Cl)cc1Cl , please.
**A:** 171 to 173 °C

**Q:** Try CCC(CC)c1ccc(Cl)c2nc3n(c12)CCCCN3c1ccc(SC)cc1C next.
**A:** 113 to 115 °C

**Q:** Try CCC(O)c1ccc(Cl)c2nc3n(c12)CCCN3c1c(C)cc(Cl)cc1Cl (stereo not shown) next.
**A:** 210 to 211 °C

**Q:** Try COC(c1ccc(Cl)c2nc3n(c12)CCCN3c1ccc(Cl)cc1Cl)(C1CC1)C1CC1 next.
**A:** 99 to 100 °C

**Q:** Try COc1ccc(C(O)(C2CC2)C2CC2)c2c1nc1n2CCCN1c1ccc(Cl)cc1Cl next.
**A:** 219 to 220 °C

**Q:** Try COCC(=O)OC(c1ccc(Cl)c2nc3n(c12)CCCN3c1ccc(Cl)cc1Cl)C1CC1 (stereo not shown) next.
**A:** 159 to 161 °C

**Q:** Try COC(c1cccc2nc3n(c12)CCCN3c1ccc(Cl)cc1Cl)C1CC1 (stereo not shown) next.
**A:** 118 to 119 °C

**Q:** Try CCC(OC(=O)C1CC1)c1ccc(Cl)c2nc3n(c12)CCCN3c1ncc(Cl)cc1Cl (stereo not shown) next.
**A:** 154 to 155 °C

**Q:** Try COC(c1ccc(Cl)c2nc3n(c12)CCCN3c1ccc(Cl)cc1Cl)C(C)C (stereo not shown) next.
**A:** 162 to 164 °C

**Q:** Try COc1nc(C)c(N2CCCn3c2nc2cccc(C(O)C(F)(F)F)c23)c(C)n1 (stereo not shown) next.
**A:** 296 to 299 °C

**Q:** Try O=S(=O)(CC(F)(F)F)NC(c1ccc(Cl)c2nc3n(c12)CCCN3c1c(Cl)cc(Cl)cc1Cl)C(F)(F)F (stereo not shown) next.
**A:** 237 to 239 °C

**Q:** Try CCCOc1ccc(N2CCCn3c2nc2c(Cl)ccc(C(OC(F)F)C(F)(F)F)c23)c(C)n1 (stereo not shown) next.
**A:** 156 to 158 °C

**Q:** Try Cc1nc(C(C)C)nc(C)c1N1CCCn2c1nc1c(Cl)ccc(C(OC(F)F)C(F)(F)F)c12 (stereo not shown) next.
**A:** 204 to 206 °C

Every entry's value here was drawn from patent US8785460B2.
